Recorded IC50 Ratio (vs PYY(3-36)) values for a group of binders are listed next.
# system-under-test: T1, human Y2 receptor (human, UniProt P49146 1-381)
# T1 construct: whole, on cells; used as membrane fraction of hY2R/CHO cells; also called human NPY2R; hY2R
# T1 sequence (looked up): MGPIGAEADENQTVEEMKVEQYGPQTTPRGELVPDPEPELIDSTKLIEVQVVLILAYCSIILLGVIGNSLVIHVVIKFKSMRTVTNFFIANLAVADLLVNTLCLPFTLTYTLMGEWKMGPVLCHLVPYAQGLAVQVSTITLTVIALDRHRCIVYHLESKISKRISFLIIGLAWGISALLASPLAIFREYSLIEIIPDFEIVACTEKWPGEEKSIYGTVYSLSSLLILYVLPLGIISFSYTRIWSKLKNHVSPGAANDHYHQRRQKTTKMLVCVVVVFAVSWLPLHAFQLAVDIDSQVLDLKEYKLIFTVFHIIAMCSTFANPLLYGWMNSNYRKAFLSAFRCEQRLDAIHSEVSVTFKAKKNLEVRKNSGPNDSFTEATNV
# protocol-summary: RBA: [125I]-PYY displacement, hY2R/CHO membranes
Non-standard residues stand in square brackets, D forms with d. No end group written: not given here. Phe(2-Me) = Cc1ccccc1C[C@H](N)C(=O)O; Ala(cPr) = N[C@@H](CC1CC1)C(=O)O; hArg = N=C(N)NCCCC[C@H](N)C(=O)O; tBuAla = CC(C)(C)C[C@H](N)C(=O)O; Cha = N[C@@H](CC1CCCCC1)C(=O)O; 4Amb = NCc1ccc(C(=O)O)cc1; Ac3c = NC1(C(=O)O)CC1; Aib = CC(C)(N)C(=O)O
All answers are understood in ratio, so give the number only.

Solved cases (6 shown):
binder: Ac-E[dP]RH[Cha][tBuAla]NK[Aib]TRQR[Cha]-NH2 (SMILES CC(=O)N[C@@H](CCC(=O)O)C(=O)N1CCC[C@@H]1C(=O)N[C@@H](CCCNC(=N)N)C(=O)N[C@@H](Cc1c[nH]cn1)C(=O)N[C@@H](CC1CCCCC1)C(=O)N[C@@H](CC(C)(C)C)C(=O)N[C@@H](CC(N)=O)C(=O)N[C@@H](CCCCN)C(=O)NC(C)(C)C(=O)N[C@H](C(=O)N[C@@H](CCCNC(=N)N)C(=O)N[C@@H](CCC(N)=O)C(=O)N[C@@H](CCCNC(=N)N)C(=O)N[C@@H](CC1CCCCC1)C(N)=O)[C@@H](C)O, also called compound No. 168) [Ac-[Glu23, D-Pro24, Cha27,36, Leu(Me)28, Lys30, Aib31]-PYY(23-36)]
measurement-label: IC50 Ratio (vs PYY(3-36))
result: 0.73
//
binder: [4Amb]R[Ala(cPr)]YINLITRQRY-NH2 (N-terminus assumed; SMILES CC[C@H](C)[C@H](NC(=O)[C@H](Cc1ccc(O)cc1)NC(=O)[C@H](CC1CC1)NC(=O)[C@H](CCCNC(=N)N)NC(=O)c1ccc(CN)cc1)C(=O)N[C@@H](CC(N)=O)C(=O)N[C@@H](CC(C)C)C(=O)N[C@H](C(=O)N[C@H](C(=O)N[C@@H](CCCNC(=N)N)C(=O)N[C@@H](CCC(N)=O)C(=O)N[C@@H](CCCNC(=N)N)C(=O)N[C@@H](Cc1ccc(O)cc1)C(N)=O)[C@@H](C)O)[C@@H](C)CC, name prints Ile28,32; also called compound No. 48) [4-Aminomethylbenzoyl-[Ala(cPr)26, Ile28,32]-PYY(25-36)]
measurement-label: IC50 Ratio (vs PYY(3-36))
result: 8.1
//
binder: Ac-S[dP]RH[Cha][Cha]NL[Aib]TRQR[Phe(2-Me)]-NH2 (SMILES CC(=O)N[C@@H](CO)C(=O)N1CCC[C@@H]1C(=O)N[C@@H](CCCNC(=N)N)C(=O)N[C@@H](Cc1c[nH]cn1)C(=O)N[C@@H](CC1CCCCC1)C(=O)N[C@@H](CC1CCCCC1)C(=O)N[C@@H](CC(N)=O)C(=O)N[C@@H](CC(C)C)C(=O)NC(C)(C)C(=O)N[C@H](C(=O)N[C@@H](CCCNC(=N)N)C(=O)N[C@@H](CCC(N)=O)C(=O)N[C@@H](CCCNC(=N)N)C(=O)N[C@@H](Cc1ccccc1C)C(N)=O)[C@@H](C)O, also called compound No. 196) [Ac-[D-Pro24, Cha27,28, Aib31, Phe(2Me)36]-PYY(23-36)]
measurement-label: IC50 Ratio (vs PYY(3-36))
result: 1.6
//
binder: Ac-S[dP]RH[Cha][Cha]NL[Ac3c]TRQR[Cha]-NH2 (SMILES CC(=O)N[C@@H](CO)C(=O)N1CCC[C@@H]1C(=O)N[C@@H](CCCNC(=N)N)C(=O)N[C@@H](Cc1c[nH]cn1)C(=O)N[C@@H](CC1CCCCC1)C(=O)N[C@@H](CC1CCCCC1)C(=O)N[C@@H](CC(N)=O)C(=O)N[C@@H](CC(C)C)C(=O)NC1(C(=O)N[C@H](C(=O)N[C@@H](CCCNC(=N)N)C(=O)N[C@@H](CCC(N)=O)C(=O)N[C@@H](CCCNC(=N)N)C(=O)N[C@@H](CC2CCCCC2)C(N)=O)[C@@H](C)O)CC1, also called compound No. 131) [Ac-[D-Pro24, Cha27,28,36, Acpc31]-PYY(23-36)]
measurement-label: IC50 Ratio (vs PYY(3-36))
result: 7
//
binder: Ac-S[dP]RH[Cha][Cha]NT[Aib]TRQR[Cha]-NH2 (SMILES CC(=O)N[C@@H](CO)C(=O)N1CCC[C@@H]1C(=O)N[C@@H](CCCNC(=N)N)C(=O)N[C@@H](Cc1c[nH]cn1)C(=O)N[C@@H](CC1CCCCC1)C(=O)N[C@@H](CC1CCCCC1)C(=O)N[C@@H](CC(N)=O)C(=O)N[C@H](C(=O)NC(C)(C)C(=O)N[C@H](C(=O)N[C@@H](CCCNC(=N)N)C(=O)N[C@@H](CCC(N)=O)C(=O)N[C@@H](CCCNC(=N)N)C(=O)N[C@@H](CC1CCCCC1)C(N)=O)[C@@H](C)O)[C@@H](C)O, also called compound No. 132) [Ac-[D-Pro24, Cha27,28,36, Thr30, Aib31]-PYY(23-36)]
measurement-label: IC50 Ratio (vs PYY(3-36))
result: 6.1
//
binder: [4Amb]RAYINLIT[hArg]QRY-NH2 (N-terminus assumed; SMILES CC[C@H](C)[C@H](NC(=O)[C@H](Cc1ccc(O)cc1)NC(=O)[C@H](C)NC(=O)[C@H](CCCNC(=N)N)NC(=O)c1ccc(CN)cc1)C(=O)N[C@@H](CC(N)=O)C(=O)N[C@@H](CC(C)C)C(=O)N[C@H](C(=O)N[C@H](C(=O)N[C@@H](CCCCNC(=N)N)C(=O)N[C@@H](CCC(N)=O)C(=O)N[C@@H](CCCNC(=N)N)C(=O)N[C@@H](Cc1ccc(O)cc1)C(N)=O)[C@@H](C)O)[C@@H](C)CC, also called compound No. 11) [4-Aminomethylbenzoyl-[Ala26, Ile28,31, Har33]-PYY(25-36)]
measurement-label: IC50 Ratio (vs PYY(3-36))
result: 260

Now take the following binder into account.
Item [4Amb]RAYINLFTRQRY-NH2 (N-terminus assumed; SMILES CC[C@H](C)[C@H](NC(=O)[C@H](Cc1ccc(O)cc1)NC(=O)[C@H](C)NC(=O)[C@H](CCCNC(=N)N)NC(=O)c1ccc(CN)cc1)C(=O)N[C@@H](CC(N)=O)C(=O)N[C@@H](CC(C)C)C(=O)N[C@@H](Cc1ccccc1)C(=O)N[C@H](C(=O)N[C@@H](CCCNC(=N)N)C(=O)N[C@@H](CCC(N)=O)C(=O)N[C@@H](CCCNC(=N)N)C(=O)N[C@@H](Cc1ccc(O)cc1)C(N)=O)[C@@H](C)O, also called compound No. 59) [4-Aminomethylbenzoyl-[Ala26, Ile28, Phe31]-PYY(25-36)] has what recorded IC50 Ratio (vs PYY(3-36))?
16
